Cited source for all entries: paper PMC5656002

Listed binders paired with reported log10 of Ki
MEASUREMENT_TARGET: KPC-2 β-lactamase (purified) (UniProt Q9F663 30-293)
Sequence (Q9F663 30-293): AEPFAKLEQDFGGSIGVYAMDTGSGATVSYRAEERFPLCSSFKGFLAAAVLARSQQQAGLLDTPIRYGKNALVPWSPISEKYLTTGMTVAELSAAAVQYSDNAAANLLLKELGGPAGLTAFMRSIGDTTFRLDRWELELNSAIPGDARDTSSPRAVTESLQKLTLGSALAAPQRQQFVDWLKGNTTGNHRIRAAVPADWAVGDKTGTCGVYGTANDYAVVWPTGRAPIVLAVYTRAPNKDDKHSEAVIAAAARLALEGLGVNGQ
ASSAY_INFO: enzyme inhibition assay
EXPERIMENTAL_READOUT: log10 of Ki (log10 of the value in nM)

BINDER	log10 of Ki
BLIP W112D (natural protein) AGVMTGAKFTQIQFGMTRQQVLDIAGAENCETGGSFGDSIHCRGHAAGDYYAYATFGFTSAAADAKVDSKSQEKLLAPSAPTLTLAKFNQVTVGMTRAQVLATVGQGSCTTDSEYYPAYPSTAGVTLSLSCFDVDGYSSTGFYRGSAHLWFTDGVLQGKRQWDLV	2.77
BLIP R160G (natural protein) AGVMTGAKFTQIQFGMTRQQVLDIAGAENCETGGSFGDSIHCRGHAAGDYYAYATFGFTSAAADAKVDSKSQEKLLAPSAPTLTLAKFNQVTVGMTRAQVLATVGQGSCTTWSEYYPAYPSTAGVTLSLSCFDVDGYSSTGFYRGSAHLWFTDGVLQGKGQWDLV	-0.40
BLIP E73K (natural protein) AGVMTGAKFTQIQFGMTRQQVLDIAGAENCETGGSFGDSIHCRGHAAGDYYAYATFGFTSAAADAKVDSKSQKKLLAPSAPTLTLAKFNQVTVGMTRAQVLATVGQGSCTTWSEYYPAYPSTAGVTLSLSCFDVDGYSSTGFYRGSAHLWFTDGVLQGKRQWDLV	0.95
BLIP K74T (natural protein) AGVMTGAKFTQIQFGMTRQQVLDIAGAENCETGGSFGDSIHCRGHAAGDYYAYATFGFTSAAADAKVDSKSQETLLAPSAPTLTLAKFNQVTVGMTRAQVLATVGQGSCTTWSEYYPAYPSTAGVTLSLSCFDVDGYSSTGFYRGSAHLWFTDGVLQGKRQWDLV	0.18
β-lactamase inhibitory protein (BLIP), wild type (natural protein, Streptomyces clavuligerus, UniProt P35804 37-201, looked up) AGVMTGAKFTQIQFGMTRQQVLDIAGAENCETGGSFGDSIHCRGHAAGDYYAYATFGFTSAAADAKVDSKSQEKLLAPSAPTLTLAKFNQVTVGMTRAQVLATVGQGSCTTWSEYYPAYPSTAGVTLSLSCFDVDGYSSTGFYRGSAHLWFTDGVLQGKRQWDLV	-0.70
